Test system: CCRF-CEM
Assay: In vitro cytotoxicity by its growth inhibitory activity against human leukemic lymphoblasts (CEM cells).
Assay type: functional, cell-based
Catalogue of compounds with associated IC50
The answer is to be given in nM; state only the numeric part.

{"columns": ["Compound", "System under test", "Unit of measurement", "IC50"],
 "data": [
  ["CCCCCCCCOC(=O)C(CCC(=O)O)NC(=O)c1ccc(N(C)Cc2cnc3nc(N)nc(N)c3n2)cc1 (centres undefined)", "CCRF-CEM", "nM", 3000]
]}

## Input What IC50 appears in the records for this compound with CCRF-CEM? CCCCCCCCCCCCOC(=O)C(CCC(=O)O)NC(=O)c1ccc(N(C)Cc2cnc3nc(N)nc(N)c3n2)cc1 (centres undefined)
## Output 2100

## Input What IC50 appears in the records for this compound with CCRF-CEM? CCCCOC(=O)C(CCC(=O)O)NC(=O)c1ccc(N(C)Cc2cnc3nc(N)nc(N)c3n2)cc1 (centres undefined)
## Output 2000
